B1: VH:VL chains; a variant is named by its letters at X, in order (parent)
chain 1: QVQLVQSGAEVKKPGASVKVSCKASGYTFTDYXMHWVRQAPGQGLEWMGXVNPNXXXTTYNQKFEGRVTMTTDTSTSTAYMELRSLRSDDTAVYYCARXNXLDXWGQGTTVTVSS
chain 2: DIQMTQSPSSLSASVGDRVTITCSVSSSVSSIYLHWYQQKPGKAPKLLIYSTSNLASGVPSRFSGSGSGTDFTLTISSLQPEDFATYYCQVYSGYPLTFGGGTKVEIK

- Variants of: B1
- Method notes: yeast display scFab, FACS + sequencing
Endpoint name: non-specific binding call

Record excerpt, results attached:
>>> recorded_value("VRAETDVY")
"no binding"
>>> recorded_value("FTKAASWV")
"no binding"
>>> recorded_value("YKGKDSSV")
"no binding"
>>> recorded_value("VEGRGDVF")
"no binding"
>>> recorded_value("VKGRGVGY")
"binds"

For DKGGSSLD the variant record lists non-specific binding call as no binding

For FKGKGAAF the variant record lists non-specific binding call as binds

For YRRGDAWD the variant record lists non-specific binding call as binds

For VRGRDDGV the variant record lists non-specific binding call as no binding

For SAGEGDVY the variant record lists non-specific binding call as no binding

meta.source: the emibetuzumab library of Makowski et al. (2022)
